For each record, write down the corresponding Skin Reaction 24 Hours (diameter of erythema and induration).
# System: delayed-type hypersensitivity to N-acetyltyrosine-3-azobenzene-4'-arsonic acid (ABA-N-Ac-Tyr)
# protocol-description: Adjuvant activity: enhancement of induction of delayed-type hypersensitivity (skin reaction)
# Format: in vivo
# measurement-parameters: guinea pig; 100 μg/animal compound with 50 μg ABA-N-Ac-Tyr in FIA into soles; 100 μg ABA-BSA intradermal two weeks later; read 24 hours after injection; mean ± SE
Give bare numbers, in mm.

compound	unit-descriptor	observed-value
COC(=O)CC[C@@H](NC(=O)[C@H](C)NC(=O)[C@@H](C)O[C@H]1[C@H](O)[C@@H](CO)O[C@@H](SC(C)=O)[C@@H]1NC(C)=O)C(N)=O [Compound 2]	mm	21.0
COC(=O)CC[C@@H](NC(=O)[C@H](C)NC(=O)[C@@H](C)O[C@H]1[C@H](O)[C@@H](CO)O[C@@H](S)[C@@H]1NC(C)=O)C(N)=O [Compound 3]	mm	22.1

Switching to the query record.
Which measured Skin Reaction 24 Hours (diameter of erythema and induration) value corresponds to CCCCCCCCCCCCCCCC(=O)S[C@@H]1O[C@H](CO)[C@@H](O)[C@H](O[C@H](C)C(=O)N[C@@H](C)C(=O)N[C@H](CCC(=O)O)C(N)=O)[C@H]1NC(C)=O [Compound 17] ?
21.8

Attribution: patent US4606857A
